test system: linearized plasmid DNA (linear double stranded DNA, 6.8 kb); test: Gel mobility shift assay; assay type: binding; settings: minimum peptide needed for complete shift of 100 ng plasmid DNA; — = no shift up to highest ratio tested
measurementType: Peptide:DNA Ratio, Molar Binding Ratio

MAAWMRSLFSPLKKLWIRMH (Zea mays) [mTP2] | 167.39
MLFRLRRSVRLRGLLA (listed as Arabidopsis thaliana) [mTP5] | 114.29
MKLLWRLILSRKW (listed as Arabidopsis thaliana) [mTP3] | 71.39
MFSYLPRYPLRAASARALVRATRPSYRSALLRYQ (listed as Triticum aestivum) [mTP1] | 264.14
